Target: dopamine D2S receptor (Homo sapiens (Human), UniProt P14416)
Sequence (P14416 other isoform, or with tags, fused parts or gaps): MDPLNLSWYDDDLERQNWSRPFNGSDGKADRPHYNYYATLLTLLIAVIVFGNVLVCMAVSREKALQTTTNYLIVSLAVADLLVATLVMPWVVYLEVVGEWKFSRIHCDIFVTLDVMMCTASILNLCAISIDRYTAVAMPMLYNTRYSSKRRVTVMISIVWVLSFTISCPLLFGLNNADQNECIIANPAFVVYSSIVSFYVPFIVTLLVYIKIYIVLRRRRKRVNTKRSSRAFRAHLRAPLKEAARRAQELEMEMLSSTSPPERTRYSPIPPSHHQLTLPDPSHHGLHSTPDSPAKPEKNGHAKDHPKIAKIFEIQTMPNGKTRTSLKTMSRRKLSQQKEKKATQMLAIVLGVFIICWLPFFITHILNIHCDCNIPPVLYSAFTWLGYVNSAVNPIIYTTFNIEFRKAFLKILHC
Test: Affinity for human dopamine D2S receptor ([3H]methyl-spiperone binding)
Settings: 0.3 nM [3H]methyl-spiperone, cell membrane homogenates, 22° C., 60 minutes
Below, each entry is listed with its recorded Ki.
quantityKind: Ki

- N#Cc1ccc2[nH]cc(CCCCN3CCN(c4nccc(C(N)=O)n4)CC3)c2c1: 310 nM
- N#Cc1ccc2[nH]cc(CCCN3CCN(c4nccc(C#N)n4)CC3)c2c1: 190 nM
- Cc1nc(N2CCN(CCCc3c[nH]c4ccc(C#N)cc34)CC2)sc1C(N)=O: > 1000 nM
- CCOC(=O)c1sc(N2CCN(CCCc3c[nH]c4ccc(C#N)cc34)CC2)nc1C: > 1000 nM
- Cc1nc(N2CCN(CCCCc3c[nH]c4ccc(F)cc34)CC2)sc1C#N: > 1000 nM
